This collection of values is drawn from ChEMBL document CHEMBL1240375.

System: Staphylococcus aureus
Assay: Antimicrobial activity against Staphylococcus aureus RN4220 transformant carrying plasmid pKKS25 and expressing erm(T), dfrK and tet(L) genes by broth microdilution method
Format: functional
The following compounds are listed with their measured log10(MIC) values.
Annotation: log10 of MIC, µg/mL basis.

Readout log10(MIC) for CN[C@@H]1[C@H](O)[C@H](NC)[C@H]2O[C@@]3(O)C(=O)C[C@@H](C)O[C@H]3O[C@@H]2[C@H]1O , test system Staphylococcus aureus, was 1.81

# lookup: CC(=O)NC[C@H]1CN(c2ccc(N3CCOCC3)c(F)c2)C(=O)O1 on Staphylococcus aureus, log10(MIC) = -0.30
